Assign log10(IC50) to each entry below.
- Target system: CREBBP (1084-1701) (Homo sapiens, UniProt Q92793)
- Construct: measured in the following biochemical assay using CREBBP (1084-1701); purchased
- Sequence (Q92793 1084-1701): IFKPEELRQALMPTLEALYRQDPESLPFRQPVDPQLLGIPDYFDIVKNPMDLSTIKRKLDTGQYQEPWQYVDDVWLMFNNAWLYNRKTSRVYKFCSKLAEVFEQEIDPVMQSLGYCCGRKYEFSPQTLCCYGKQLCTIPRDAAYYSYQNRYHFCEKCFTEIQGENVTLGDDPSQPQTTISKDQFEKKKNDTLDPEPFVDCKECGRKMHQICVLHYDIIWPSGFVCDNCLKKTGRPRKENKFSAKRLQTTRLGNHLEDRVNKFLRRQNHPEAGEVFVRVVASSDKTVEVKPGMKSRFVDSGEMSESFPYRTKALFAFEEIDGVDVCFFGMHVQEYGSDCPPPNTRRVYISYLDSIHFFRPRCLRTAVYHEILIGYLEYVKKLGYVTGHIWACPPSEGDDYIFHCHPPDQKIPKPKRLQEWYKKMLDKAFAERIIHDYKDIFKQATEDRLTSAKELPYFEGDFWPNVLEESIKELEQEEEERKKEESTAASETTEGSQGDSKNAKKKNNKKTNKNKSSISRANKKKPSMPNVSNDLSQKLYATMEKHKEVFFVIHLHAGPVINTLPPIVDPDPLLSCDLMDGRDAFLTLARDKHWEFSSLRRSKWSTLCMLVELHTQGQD
- Run description: Biochemical assay for CREBBP (1084-1701), SAMDI
- Cond: SAMDI, read-out: CREBBP Biochemistry IC50
Friendly reminder: values = log10 of IC50, unit nM.

Exercise: Would you kindly share the measured log10(IC50) for CCn1ncc(CN(C)C(=O)c2cc(-c3cccnc3)nc3ccc(Cl)cc23)c1C [Compound 325] ?
Solution: 4.74

Exercise: Would you kindly share the measured log10(IC50) for CCn1ncc(CN(C)C(=O)c2cc(-c3ccc(OCC(O)CNC)c(C)n3)nc3ccc(COC)cc23)c1C (stereo not drawn) [Compound 496] ?
Solution: 2.22

Exercise: Would you kindly share the measured log10(IC50) for CCn1ncc(CN(C)C(=O)c2nc(-c3cc(Cl)cc(NCCN(C)C(=O)OC(C)(C)C)c3)nc3ccc(Cl)cc23)c1C [Compound 121] ?
Solution: 2.61

Exercise: Would you kindly share the measured log10(IC50) for CCn1ncc(CN(C)C(=O)c2cc(-c3ccc(NCC(O)CN(C)C)c(C)n3)nc3ccc(Cl)cc23)c1C (stereo not drawn) [Compound 604] ?
Solution: 1.45

Exercise: Would you kindly share the measured log10(IC50) for CCn1ncc(CN(C)C(=O)c2nc(-c3cc(C#N)cc(NCCN(C)C(=O)OC(C)(C)C)c3)nc3ccc(Cl)cc23)c1C [Compound 105] ?
Solution: 3.52

Exercise: Would you kindly share the measured log10(IC50) for CCn1ncc(CN(C)C(=O)c2cc(-c3cc(C)nc(C)n3)nc3ccc(Cl)cc23)c1C [Compound 411] ?
Solution: 4.70

Exercise: Would you kindly share the measured log10(IC50) for CCc1ncc(CN(C)C(=O)c2nc(-c3cc(C)cc(NC4CCNC4)c3)nc3ccc(COC)cc23)n1C (stereo not drawn) [Compound 501] ?
Solution: 2.17

Exercise: Would you kindly share the measured log10(IC50) for CCn1ncc(CN(C)C(=O)c2nc(-c3ccc4n[nH]c(N)c4c3)nc3ccc(Cl)cc23)c1C [Compound 532] ?
Solution: 1.24

Exercise: Would you kindly share the measured log10(IC50) for CCn1ncc(CN(C)C(=O)c2nc(-c3ccc4nc[nH]c4c3Cl)nc3ccc(COC)cc23)c1C [Compound 89] ?
Solution: 2.26

Exercise: Would you kindly share the measured log10(IC50) for CCn1ncc(CN(C)C(=O)c2nc(-c3cc(Cl)ccc3Cl)nc3ccc(Cl)cc23)c1C [Compound 297] ?
Solution: 3.26

Exercise: Would you kindly share the measured log10(IC50) for CCn1ncc(CN(C)C(=O)c2cc(-c3cnc(CNC)[nH]3)nc3ccc(Cl)cc23)c1C [Compound 149] ?
Solution: 4.15

Exercise: Would you kindly share the measured log10(IC50) for CCn1ncc(CN(C)C(=O)c2nc(-c3cc(C(=O)NCCN4CCCC4)n(Cc4ccc(OC)cc4)n3)nc3ccc(Cl)cc23)c1C [Compound 177] ?
Solution: 4.73

Exercise: Would you kindly share the measured log10(IC50) for CCc1ncc(CN(C)C(=O)c2nc(-c3cc(Cl)c4[nH]cnc4c3)nc3ccc(COC)cc23)n1C [Compound 523] ?
Solution: 0.79

Exercise: Would you kindly share the measured log10(IC50) for CCn1ncc(CN(C)C(=O)c2nc(-c3ccc(OCCNC)c(Cl)c3)nc3ccc(C4COC4)cc23)c1C [Compound 498] ?
Solution: 3.71

Exercise: Would you kindly share the measured log10(IC50) for CCn1ncc(CN(C)C(=O)c2nc(-c3ccc(OCCO)c(F)c3)nc3ccc(Cl)cc23)c1C [Compound 111] ?
Solution: 3.81

###

- Test system: H3K18Ac in HB-CLS-2 cells
- Run description: H3K18AC in-cell western (ICW) assay
- Assay type: cell-based
- Cond: H3K18Ac in-cell western; read-out: CREBBP ICW IC50
Mark satisfied only for IC50 values smaller than 0.4 µM; exact matches and larger values are not satisfied.

Exercise: Lab log: compare recorded IC50 with 0.4 µM; is it strictly lower for CCc1nn(C)c(CN(C)C(=O)c2cc(-c3ccc(NCCNC)c(C)n3)nc3ccc(Cl)cc23)c1C [Compound 586] ?
Solution: not satisfied

Exercise: Lab log: compare recorded IC50 with 0.4 µM; is it strictly lower for CCn1ncc(CN(C)C(=O)c2nc(-c3ccc(OCC(O)CN4CCCC4)c(Cl)c3)nc3ccc(Cl)cc23)c1C (stereo not shown) [Compound 27] ?
Solution: satisfied

Exercise: Lab log: compare recorded IC50 with 0.4 µM; is it strictly lower for CCn1ncc(CN(C)C(=O)c2nc(-n3ncc4c3CN(C(=O)OC(C)(C)C)CC4)nc3ccc(Cl)cc23)c1C [Compound 192] ?
Solution: not satisfied

Exercise: Lab log: compare recorded IC50 with 0.4 µM; is it strictly lower for CCn1ncc(CN(C)C(=O)c2nc(-c3ccc(OCCNC(=O)OC(C)(C)C)c(C)c3)nc3ccc(Cl)cc23)c1C [Compound 143] ?
Solution: not satisfied

Exercise: Lab log: compare recorded IC50 with 0.4 µM; is it strictly lower for CCn1ncc(CN(C)C(=O)c2nc(-c3ccc(OCCNC(C)=O)cc3Cl)nc3ccc(Cl)cc23)c1C [Compound 56] ?
Solution: not satisfied

Exercise: Lab log: compare recorded IC50 with 0.4 µM; is it strictly lower for CCn1ncc(CN(C)C(=O)c2cc(-c3cnc(NCCNC)c(C)n3)nc3ccc(Cl)cc23)c1C [Compound 525] ?
Solution: satisfied

###

Assign IC50 to each entry below.
- Test system: H3K18Ac in HB-CLS-2 cells
- Run description: H3K18AC in-cell western (ICW) assay
- Type: cell-based
- Cond: H3K18Ac in-cell western; read-out: CREBBP ICW IC50
The reply should be a number in nM, with the unit left off.

Exercise: Would you kindly share the measured IC50 for CCn1ncc(CN(C)C(=O)c2nc(-c3cc(Cl)c4c[nH]nc4c3)nc3ccc(COC)cc23)c1C ?
Solution: 180

Exercise: Would you kindly share the measured IC50 for CCc1ncc(CN(C)C(=O)c2nc(-c3cc(C)nc(NCCNC)c3)nc3ccc(COC)cc23)n1C ?
Solution: 798

Exercise: Would you kindly share the measured IC50 for CCn1ncc(CN(C)C(=O)c2nc(-c3ccc(NC4CCNCC4)cn3)nc3ccc(Cl)cc23)c1C ?
Solution: 9000

Exercise: Would you kindly share the measured IC50 for CCn1ncc(CN(C)C(=O)c2nc(-c3ccc4nc[nH]c4c3)nc3ccc(Cl)cc23)c1C [Compound 59] ?
Solution: 670

Exercise: Would you kindly share the measured IC50 for CCn1ncc(CN(C)C(=O)c2cc(-c3cccc(Cl)c3)nc3ccc(Cl)cc23)c1C ?
Solution: 2400

Exercise: Would you kindly share the measured IC50 for CCn1ncc(CN(C)C(=O)c2cc(-c3cn(C)cn3)nc3ccc(Cl)cc23)c1C ?
Solution: 3300

Exercise: Would you kindly share the measured IC50 for CCn1ncc(CN(C)C(=O)c2cc(-c3ccc(NCCNC)c(C(F)(F)F)n3)nc3ccc(Cl)cc23)c1C ?
Solution: 88.6

###

Assign pIC50 to each entry below.
- Target system: CREBBP (1084-1701) (Homo sapiens, UniProt Q92793)
- Construct: measured in the following biochemical assay using CREBBP (1084-1701); purchased
- Run description: Biochemical assay for CREBBP (1084-1701), SAMDI
- Cond: SAMDI, read-out: CREBBP Biochemistry IC50
Please report pIC50 as the negative decimal logarithm of the molar concentration, giving only the number.

Exercise: Would you kindly share the measured pIC50 for CCc1ncc(CN(C)C(=O)c2cc(-c3ccc(NCCN(C)C)c(C)n3)nc3ccc(Cl)cc23)n1C [Compound 577] ?
Solution: 7.37

Exercise: Would you kindly share the measured pIC50 for CCn1ncc(CN(C)C(=O)c2cc(-c3ccccc3Cl)nc3cc(C)ccc23)c1C [Compound 263] ?
Solution: 4.06

Exercise: Would you kindly share the measured pIC50 for CCn1ncc(CN(C)C(=O)c2cc(-c3ccccc3Cl)nc3ccccc23)c1C [Compound 376] ?
Solution: 4.49

Exercise: Would you kindly share the measured pIC50 for CCn1ncc(CN(C)C(=O)c2cc(-c3ccc(NCCNC)c(C(F)(F)F)n3)nc3ccc(Cl)cc23)c1C [Compound 471] ?
Solution: 7.45

Exercise: Would you kindly share the measured pIC50 for CCn1ncc(CN(C)C(=O)c2nc(-c3ccc(OCCCNC(=O)OC(C)(C)C)c(OC)c3)nc3ccc(Cl)cc23)c1C [Compound 127] ?
Solution: 4.92

Exercise: Would you kindly share the measured pIC50 for CCc1n[nH]c(CN(C)C(=O)c2cc(-c3ccccc3Cl)nc3ccc(Cl)cc23)c1C [Compound 298] ?
Solution: 4.51

Exercise: Would you kindly share the measured pIC50 for CCn1ncc(CN(C)C(=O)c2nc(-c3cc4c(N)nn(CCNC)c4cc3C)nc3ccc(Cl)cc23)c1C [Compound 507] ?
Solution: 6.25

Exercise: Would you kindly share the measured pIC50 for CCn1ncc(CN(C)C(=O)c2nc(-c3cnn(CCCO)c3)nc3ccc(Cl)cc23)c1C [Compound 212] ?
Solution: 4.02

Exercise: Would you kindly share the measured pIC50 for CNCCNc1ccc(-c2cc(C(=O)N(C)Cc3cnc(C4CC4)n3C)c3cc(Cl)ccc3n2)nc1C [Compound 540] ?
Solution: 7.69

Exercise: Would you kindly share the measured pIC50 for CCn1ncc(CN(C)C(=O)c2cc(-c3ccc(NCCNC)c(C)n3)nc3cc(COC)ccc23)c1C [Compound 492] ?
Solution: 5.14

Exercise: Would you kindly share the measured pIC50 for CCCOc1ccc(-c2nc(C(=O)N(C)Cc3cnn(CC)c3C)c3cc(Cl)ccc3n2)cc1Cl [Compound 157] ?
Solution: 5.49

Exercise: Would you kindly share the measured pIC50 for CCn1ncc(CN(C)C(=O)c2nc(-c3cc4[nH]ncc4cc3C)nc3ccc(Cl)cc23)c1C [Compound 10] ?
Solution: 7.66

Exercise: Would you kindly share the measured pIC50 for CCn1ncc(CN(C)C(=O)c2cc(-c3ccc(NCC4CN(C)CCO4)c(C)n3)nc3ccc(Cl)cc23)c1C (stereo not drawn) [Compound 628] ?
Solution: 5.44

Exercise: Would you kindly share the measured pIC50 for CCc1noc(C(C)N(C)C(=O)c2nc(-c3cc4c(NC)[nH]nc4cc3C)nc3ccc(Cl)cc23)c1C (stereo not drawn) [Compound 622] ?
Solution: 6.97

Exercise: Would you kindly share the measured pIC50 for CCn1ncc(CN(C)C(=O)c2nc(-c3cc(NCCNC)cc(OC)c3)nc3ccc(Cl)cc23)c1C [Compound 5] ?
Solution: 7.80

Exercise: Would you kindly share the measured pIC50 for CCn1ncc(CN(C)C(=O)c2nc(-c3ccc(OCCO)c(Cl)c3)nc3ccc(Cl)cc23)c1C [Compound 41] ?
Solution: 7.21

Exercise: Would you kindly share the measured pIC50 for CCn1ncc(CN(C)C(=O)c2cc(-c3ccccc3Cl)nc3cc(Cl)ccc23)c1C [Compound 270] ?
Solution: 4.60

Exercise: Would you kindly share the measured pIC50 for CCn1ncc(CN(C)C(=O)c2nc(-c3cc(C)nc(NCCN(C)C)c3)nc3ccc(Cl)cc23)c1C [Compound 470] ?
Solution: 7.73

Exercise: Would you kindly share the measured pIC50 for CCn1ncc(CN(C)C(=O)c2nc(-c3cc(N)c4cn[nH]c4c3)nc3ccc(COC)cc23)c1C [Compound 499] ?
Solution: 7.83

Exercise: Would you kindly share the measured pIC50 for CCn1ncc(CN(C)C(=O)c2nc(-c3ccc(OCCO)c(OC)c3)nc3ccc(Cl)cc23)c1C [Compound 102] ?
Solution: 5.40

Exercise: Would you kindly share the measured pIC50 for CCn1ncc(CN(C)C(=O)c2nc(-c3ccc(OCCOC)c(Cl)c3)nc3ccc(Cl)cc23)c1C [Compound 108] ?
Solution: 6.01

Exercise: Would you kindly share the measured pIC50 for CCn1ncc(CN(C)C(=O)c2nc(-c3cc(Cl)cc(OCCCNC)c3)nc3ccc(Cl)cc23)c1C [Compound 128] ?
Solution: 6.46

Exercise: Would you kindly share the measured pIC50 for CCc1noc(CN(C)C(=O)c2cc(-c3ccc(NCCNC)c(C)n3)nc3ccc(Cl)cc23)n1 [Compound 575] ?
Solution: 5.47

Exercise: Would you kindly share the measured pIC50 for CCn1ncc(CN(C)C(=O)c2nc(N3CCc4cn[nH]c4C3)nc3ccc(Cl)cc23)c1C [Compound 161] ?
Solution: 4.77

Exercise: Would you kindly share the measured pIC50 for CCc1nc(-c2cc(C(=O)N(C)Cc3cnn(CC)c3C)c3cc(COC)ccc3n2)ccc1NCCNC [Compound 595] ?
Solution: 7.29

Exercise: Would you kindly share the measured pIC50 for CCn1ncc(CN(C)C(=O)c2cc(-c3ccccc3F)nc3ccc(Cl)cc23)c1C [Compound 86] ?
Solution: 6.15

Exercise: Would you kindly share the measured pIC50 for CCn1ncc(CN(C)C(=O)c2nc(-c3ccc(OCCNC)nn3)nc3ccc(Cl)cc23)c1C [Compound 414] ?
Solution: 4.52

Exercise: Would you kindly share the measured pIC50 for CCc1ncc(CN(C)C(=O)c2nc(-c3cc(C)c4c(N)[nH]nc4c3)nc3ccc(Cl)cc23)n1C [Compound 526] ?
Solution: 8.19

Exercise: Would you kindly share the measured pIC50 for CNCCNc1ccc(-c2cc(C(=O)N(C)Cc3cncn3C)c3cc(Cl)ccc3n2)nc1C [Compound 543] ?
Solution: 5.07

Exercise: Would you kindly share the measured pIC50 for Cc1c(CN(C)C(=O)c2nc(-c3ccccc3Cl)nc3ccc(Cl)cc23)cnn1C1CC1 [Compound 285] ?
Solution: 5.38
